All figures here come from PubChem BioAssay AID1259399.

# Target Of Assay: Cyclic GMP-AMP synthase (Mus musculus)
# Experiment Notes: cyclic GMP-AMP synthase inhibitors, mouse, primary biochemical chemiluminescence (AID 1259399);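 note: 0% = negative control wells and 100% = reference inhibitor with no enzyme activity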
# Condition Description: recombinant cGAS, Kinase-Glo ATP depletion luminescence; at 12.5 µM; hits give high values
In all, about 160,000 compounds went through this assay and about 240 (0.15%) were called active. The list comes from a sample in which actives are over-represented; it also holds close analogues and randomly drawn compounds.
Exercise: for every item that follows, state its recorded inhibition.
Express the result in % but write the number alone.

Request: Quick one: inhibition of `Cc1csc2nc(CSc3ncn[nH]3)cc(=O)n12` ?
Response: -4.64

Request: Sample COc1cc2c(cc1OC)C(CNC(=O)NC(C)(C)C)N(Cc1ccc(F)cc1)CC2 (stereo not drawn) — what was its inhibition?
Response: -7.88

Request: Please look up its inhibition: `CCCC(=O)Nc1ccc(NC(=O)c2cc(C(C)C)[nH]n2)cc1OC`
Response: -8.07

Request: Which inhibition is listed for `Brc1ccc(N=c2oc3ccccc3cc2-c2nc3ccccc3[nH]2)cc1` ?
Response: -0.816

Request: Which inhibition value is on record for `O=c1cc(-c2ccc(F)cc2)ncn1Cc1cccc2ccccc12` ?
Response: 5.38

Request: Fill in: inhibition of `Cc1cnc(C(=O)N2CC(c3ccncc3)C2)cn1` is ___
Response: -13.8

Request: Given the entry `CCOC(=O)c1ccccc1NC(=O)CSc1nnc(C)c2cnn(-c3ccccc3OC)c12` , report its measured inhibition.
Response: -1.28

Request: Requested read-out: inhibition. Entry: `CN(C)CCNC(=O)c1nn(-c2cccc(C(F)(F)F)c2)c(=O)n(Cc2ccccc2F)c1=O`
Response: 1.41

Request: Report inhibition for `COC[C@H](C)NC(=O)Cc1sc(C)nc1C` please.
Response: -2.6

Request: Bench note: what inhibition did `CCCc1nnc2sc(CCc3c(C)n[nH]c3C)nn12` show?
Response: -9.34

Request: Find the recorded inhibition belonging to O=C(CN1CCCC1Cn1cccn1)NCCc1ccc(F)cc1 (stereo not drawn) and report it.
Response: -4.22

Request: Form field: reported inhibition of `O=C(c1ccc(F)cc1F)N1CCC(c2nc(-c3ccc4c(c3)OCO4)no2)CC1`
Response: -1.48

Request: Dear colleague, I am looking for the recorded inhibition of the following compound: CCOCCCn1c(SCc2cc(F)ccc2C)nc2cc(S(=O)(=O)N3CCCC(C)C3)ccc21 (stereo not drawn)
Response: -6.92

Request: Query (compound): `CC(C)(C)c1cc2nc(C(=O)NCCc3ccccn3)cc(-c3ccccc3F)n2n1` ; field requested: inhibition
Response: -5

Request: // lookup inhibition for `CC(C)N(C(=O)CN1CCN(C(=O)c2cn(C)cc3c(=O)n(-c4ccccc4)nc2-3)CC1)C(C)C`
Response: -8.86

Request: Param item = `CC(C)(C)S(=O)(=O)c1ccc(N2CCN(c3ccc(Cl)cc3)CC2)nn1` ; retrieve measured inhibition.
Response: -8.96

Request: Requested read-out: inhibition. Entry: CC(O)CNC(c1nc(-c2ccc(Br)cc2)no1)C(C)C (stereo not drawn)
Response: -3.51

Request: Which inhibition value is on record for `COCCCN1COc2ccc3c(=O)c(Oc4ccc(OC)cc4)coc3c2C1` ?
Response: -1.41

Request: Name the recorded inhibition for CCn1nccc1NC(=O)C1(C)CCN1C(=O)c1sccc1C (stereo not drawn) .
Response: -3.99

Request: // inhibition lookup, key: `O=C(Cc1ccc2c(c1)CCC2)Nc1nn2cnnc2s1`
Response: -17.7

Request: Which inhibition value is on record for `CC12OC3(CCCCC3)C(C)(OC13CCCCC3)O2` ?
Response: -2

Request: Value lookup for inhibition; key = `CCc1nc2c(OCCOc3ccccc3)cccn2c1N(C)C(=O)c1ccccc1F`
Response: -3.16

Request: I have this compound here, COCCCN(CC(=O)N1CCc2sccc2C1COc1ccc(Cl)c(C)c1)C(=O)c1cccc(OC)c1 (stereo not drawn) , and I need its recorded inhibition.
Response: -4.66

Request: Quick check: inhibition of `CC(C)CN(Cc1ccc(OS(=O)(=O)c2ccc(F)cc2)cc1)S(=O)(=O)c1ccc(Cl)cc1` ?
Response: -3.83

Request: # get_value(readout='inhibition', item= `CC(C)c1nnsc1C(=O)N1CCC2(CC1)C(=O)NCCN2C` )
Response: -8.76

Request: Give its inhibition value. Item: `O=C(N1CC[C@@H](O)C1)C1(c2cccc(Br)c2)CC1`
Response: -0.654

Request: Which inhibition value belongs to O=C(NC(c1ccccc1)c1ccc(Cl)cc1)C1CC1(c1ccccc1)c1ccccc1 (stereo not drawn) ?
Response: -5.82

Request: GET /values?readout=inhibition&item= `COc1cc(CN(C)C(=O)c2c(C)noc2-c2ccccc2Cl)cc(OC)c1OC`
Response: 2.4

Request: What inhibition value was documented for this compound, COc1ccccc1C(=O)N1CCN(c2ccc(F)cc2)C(=O)C1C (stereo not drawn) ?
Response: -4.08

Request: GET /values?readout=inhibition&item= `CNC(=O)CN(Cc1cccc(Br)c1)C1CC1`
Response: -8.9

Request: State the recorded inhibition for this entry: `COc1ccc(C(=O)N(Cc2ccc(F)cc2)Cc2cc(NC(=O)c3ccco3)ccc2N(C)C)cc1`
Response: -0.342

Request: Item under review: `CCOC(=O)C1=C(O)/C(=C\c2cc(O)cc(O)c2)SC1=Nc1cccc(C(F)(F)F)c1` . Reported inhibition?
Response: -2.35

Request: What inhibition value was documented for this compound, CCn1c(=O)c(C(=O)NCC2CCCO2)nn(-c2ccccc2F)c1=O (stereo not drawn) ?
Response: -8.2

Request: Give its inhibition value. Item: Cc1ccc(C)c(N2CCN(C(=O)c3cccc(F)c3)C(C)C2=O)c1 (stereo not drawn)
Response: -1.42

Request: Give its inhibition value. Item: `COCCN(CCOC)Cc1cc(=O)oc2cc(-c3ccccc3)c(O)cc12`
Response: 2.45

Request: Fill in: inhibition of `COc1ccc(CCN(Cc2ccc(C)o2)C(=O)CN(CCN2CCCC2)C(=O)c2ccccc2C)cc1OC` is ___
Response: -4.1

Request: Form field: reported inhibition of `O=C1OC(c2ccc(Cl)cc2)=NC1=Cc1ccc(N2CCOCC2)s1`
Response: -5.28

Request: // lookup inhibition for `CCCCc1nc(N2CCN(C(=O)Cc3cccs3)CC2)c2c(C)nn(-c3ccc(F)cc3)c2n1`
Response: -4.18

Request: What value of inhibition has been reported for the following compound? COc1ccc2[nH]c3c(c2c1)CCN(C(=O)COCc1ccccc1)C3COCc1ccccc1 (stereo not drawn)
Response: -10.3

Request: Using the record for C=CCN1C(=O)C2(CC(=O)N(CCc3cccc(OC)c3)C2=O)c2cc(OC)ccc21 (stereo not drawn) , report its inhibition.
Response: -2.01

Request: What inhibition value was documented for this compound, `Cc1ccc(N(CCCCN2C(=O)c3ccccc3C2=O)C(=O)/C=C/c2ccccc2Cl)cc1` ?
Response: -4.6

Request: // inhibition lookup, key: `COCc1nnc2sc(Cc3ccc4c(c3)CCCC4)nn12`
Response: 79.1

Request: Param item = `CCc1nc2ccc(C(=O)N(C)Cc3ccccc3)cn2c1N(C)C(=O)c1cccc(OC)c1` ; retrieve measured inhibition.
Response: -0.76

###

# Target Of Assay: Cyclic GMP-AMP synthase (Mus musculus) (UniProt Q8C6L5)
# Sequence (Q8C6L5 whole entry, looked up): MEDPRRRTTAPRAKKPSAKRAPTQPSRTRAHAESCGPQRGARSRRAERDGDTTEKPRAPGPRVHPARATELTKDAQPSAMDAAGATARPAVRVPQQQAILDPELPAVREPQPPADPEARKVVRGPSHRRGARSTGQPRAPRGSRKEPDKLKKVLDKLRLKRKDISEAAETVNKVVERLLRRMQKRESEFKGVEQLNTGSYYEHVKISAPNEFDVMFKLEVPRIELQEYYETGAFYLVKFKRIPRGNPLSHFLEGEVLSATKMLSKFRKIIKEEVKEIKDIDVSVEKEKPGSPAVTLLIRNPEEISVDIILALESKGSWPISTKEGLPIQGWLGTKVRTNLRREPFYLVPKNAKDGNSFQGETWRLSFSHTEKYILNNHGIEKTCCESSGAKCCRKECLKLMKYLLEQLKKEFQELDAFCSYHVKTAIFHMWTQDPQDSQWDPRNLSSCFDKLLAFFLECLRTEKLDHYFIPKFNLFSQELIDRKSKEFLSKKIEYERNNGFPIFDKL
# Experiment Notes: cyclic GMP-AMP synthase inhibitors, mouse, primary biochemical chemiluminescence (AID 1259399);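 note: 0% = negative control wells and 100% = reference inhibitor with no enzyme activity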
# Condition Description: recombinant cGAS, Kinase-Glo ATP depletion luminescence; at 12.5 µM
The whole screen tested about 160,000 compounds, of which about 240 (0.15%) were called active. No stated cut-off is given here; in the data, active means inhibition above about 40%; inactive means the rest. The entries come from a sample that favours actives as a whole.
Field 'call' accepts 1 (yes) = active, 0 (no) = inactive

Request: Any idea what this test logged for CCOC(=O)C1=C(C)N=c2s/c(=C\c3ccc(Cl)c(Cl)c3)c(=O)n2C1c1cccs1 (stereo unspecified) ?
Response: 0 (no)

Request: Identify the outcome logged in this assay for the compound shown: Cc1nc2n(n1)C(=O)C(C(c1cccs1)N1CCN(CCO)CC1)S2 (stereo unspecified)
Response: 0 (no)

Request: For `CCn1c(SCc2ccccc2OC(F)F)nnc1-c1c2c(nc3ccccc13)CCC2` , which call appears in the assay record?
Response: 0 (no)

Request: How did this test come out for `Cc1cc(OC(=O)c2ccc(OC(C)C)cc2)c([N+](=O)[O-])c(=O)[nH]1` ?
Response: 0 (no)

Request: // param item: `O=C(O)CN1C(=O)/C(=C\c2ccc(F)c(Br)c2)SC1=S` ; yields the recorded call
Response: 1 (yes)

Request: // param item: `CCc1nc2c(OCCOc3ccc(F)cc3)cccn2c1N(C)C(C)=O` ; yields the recorded call
Response: 0 (no)
